Target: recombinant HIV-1 protease (Human immunodeficiency virus type 1 group M subtype B, UniProt P04585)
Construct: recombinant HIV-1 protease; purchased Bachem Bioscience
Assay: Fluorometric (FRET) enzymatic assay for the inhibition constant (Ki) against the HIV protease
Type: biochemical
Conditions: Table 2, tetra-substituted D-mannitol derivatives; pH 4.7, 30° C., substrate 10 μM, protease 18.3 nM
measurement_type: Ki (µM)
Provide the reading as a plain figure in µM.

Record request: Ki value, item O[C@@H]([C@H](O)[C@@H](COCc1ccccc1)OCc1cccs1)[C@@H](COCc1ccccc1)OCc1ccc(F)cc1 [Compound 96]
0.23

Okay, and O[C@@H]([C@H](O)[C@@H](COCC1CC1)OCC1CC1)[C@@H](COCC1CC1)OCC1CC1 [Compound 79] ?
21

Again, but for O[C@@H]([C@H](O)[C@@H](COCc1ccccc1)OCc1ccccn1)[C@@H](COCc1ccccc1)OCc1ccccn1 [Compound 88]
28

Record: O[C@@H]([C@H](O)[C@@H](COCc1ccccc1F)OCc1cccs1)[C@@H](COCc1ccccc1F)OCc1ccc(F)cc1 [Compound 97]
0.23

Another compound to check: C=CCOC[C@@H](OCc1ccccc1)[C@@H](O)[C@H](O)[C@@H](COCC=C)OCc1ccccc1 [Compound 90]
12

###

Molecular target: recombinant HIV-1 protease (Human immunodeficiency virus type 1 group M subtype B, UniProt P04585)
Construct: recombinant HIV-1 protease; purchased Bachem Bioscience
Assay: Fluorometric (FRET) enzymatic assay for the inhibition constant (Ki) against the HIV protease
Format: biochemical
Details: Table 1, benzylated D-mannitol derivatives; pH 4.7, 30° C., substrate 10 μM, protease 18.3 nM
Give Ki for every item shown.
Supply the numeric figure in µM, leaving out any unit text.

Can you look up the measured Ki of `NC(=O)c1ccc(CO[C@H](COCc2ccccc2)[C@@H](O)[C@H](O)[C@@H](COCc2ccccc2)OCc2ccc(C(N)=O)cc2)cc1` for me?
20

Try this compound too: `O[C@@H]([C@H](O)[C@@H](COCc1c(F)cccc1F)OCc1ccccc1)[C@@H](COCc1c(F)cccc1F)OCc1ccccc1`
0.33

Do the same for `O[C@@H]([C@H](O)[C@@H](COCc1ccccc1)OCc1ccc(C(F)(F)F)cc1)[C@@H](COCc1ccccc1)OCc1ccc(C(F)(F)F)cc1` please
10

###

Provide the recorded Ki for the entries that follow.
Biological target: recombinant HIV-1 protease (Human immunodeficiency virus type 1 group M subtype B, UniProt P04585)
Construct: recombinant HIV-1 protease; purchased Bachem Bioscience
Assay: Fluorometric (FRET) enzymatic assay for the inhibition constant (Ki) against the HIV protease
Format: biochemical
Settings: Table 3, di- and tri-substituted D-mannitol derivatives; pH 4.7, 30° C., substrate 10 μM, protease 18.3 nM

# query: Ki of entry `CSC(=S)O[C@H](COCc1ccccc1)[C@@H](O)[C@H](O)[C@@H](COCc1ccccc1)OC(=S)SC`
> 5 µM

Okay, and `O=C(O[C@H](COCc1ccccc1)[C@@H](O)[C@H](O)[C@@H](COCc1ccccc1)OC(=O)c1ccccc1)c1ccccc1` ?
10 µM

Check `O=[N+]([O-])c1ccc(CO[C@H](COCc2ccccc2)[C@@H](O)[C@H](O)[C@H](O)COCc2ccccc2)cc1` too.
45 µM

Same read-out for `O[C@@H]([C@H](O)[C@@H](COCc1ccccc1)OCc1ccccc1)[C@H](O)COCc1ccccc1` ?
33 µM

Next entry: `CSC(=S)O[C@H](COCc1ccccc1)[C@@H](O)[C@H](O)[C@@H](COCc1ccccc1)OCc1ccc(F)cc1`
> 5 µM
